- System: VDR:RXRa (NR concentration 270 nM, RXRa partner concentration 90 nM)
- Protocol Notes: PBM binding z-score (relative to random genomic background probes); higher = stronger binding; sequences stand for … in GC…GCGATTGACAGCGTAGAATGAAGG
Endpoint: PBM binding z-score
Give bare numbers.

Please state PBM binding z-score for every sequence in the list that follows.
1. TAGCTTAGGTCATGGGCCAGTATACCACGCGAAC
2. ACTTACGGGTCAACGAGGTTATAGCGCGCGTATA
3. CCTAACAGGCCAATCTGGGTCACTCAAGGCTTGA
4. GCTTACGCGTCAAAGGTTATAGCATGAATAGAAT
5. TCTTGTAGATCAAGCACGTTAAGAAAGCCTGAGT
6. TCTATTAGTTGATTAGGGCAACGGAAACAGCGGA
7. AGAATGAGGTAAAGATCAGGGAAACAGAATACAT

2.15
7.58
1.04
1.12
0.187
0.621
0.0577

Please state PBM binding z-score for every sequence in the list that follows.
1. ACTAGCAGGCCAAGGGCCACTCAAGATTAGTCCG
2. ACTAGCAGGCCAAGTCTGGGTCACTCAAACAAAG
3. ATCGAAAGGTCGAGGTGAGTACAGAGAAAGGGAA
4. CCTTGCGGGTCAAGGTTATAGCACGGGTGGTACG
5. AGTCTAAGTTCACTAGGTAACGTAAGATTCAGCT

[-0.798, 0.77, 4.25, 2.95, 3.59]

* * *

- Tested on: RXRa DBDmut IVT, anti-RXR (DBD mutation: RXRa K156A/R161A, NR concentration 90 nM)
- Protocol Notes: PBM binding z-score (relative to random genomic background probes); higher = stronger binding; sequences stand for … in GC…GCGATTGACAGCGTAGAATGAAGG
Endpoint: PBM binding z-score
Numbers only.

# count of solved cases: 3
biosequence=GCGACTGGGGCATCAGCACGTTACCATAACTTAA endpoint="PBM binding z-score" reading=0.239
biosequence=ATCTCTAGGTAAAAAGTTCAGTGAAAGAGAGGAC endpoint="PBM binding z-score" reading=0.695
biosequence=CCTACTGGGCCATCAGGTCATAGATATCAACGTT endpoint="PBM binding z-score" reading=-0.116

Please state PBM binding z-score for every sequence in the list that follows.
1. TAATATAGGTAATACAGGTGAAAGTCGGCATCTA
2. ACGTACGGGTCAACGAGGTTATAGCACGCGTATA

1: 0.247; 2: 2.07

Please state PBM binding z-score for every sequence in the list that follows.
1. CCAGACAGGTGAAAGGGAACTCAGTCTGGTACGC
2. GGAACGAGGGCACAGTTGATAGCATCTGTCGACG
3. GCTGCTAGGTCAACTGCTGGTCAGCTAAAGCTCG
4. CCAAACAGGTGAAAGGTAACTCAGTCTGGTACGC
5. CCAGACAGGTGGAAGGTAACTCAGTCTGGTACGC

-0.242
1.69
1.4
0.223
-0.527

Please state PBM binding z-score for every sequence in the list that follows.
1. CTTCGGAGGACAGAAGGTCAGAGCTGTCCGCTTT
2. CGTCCAAGGTCAAAGTCAGTGAAAGAGACTCGAA

1. -0.00556
2. 3.91

* * *

Give PBM binding z-score for every item shown.
- Tested on: VDR homodimer (NR concentration 270 nM)
- Protocol Notes: PBM binding z-score (relative to random genomic background probes); higher = stronger binding; sequences stand for … in GC…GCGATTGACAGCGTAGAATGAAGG
One number for each entry.

biosequence=CAAACTAGGTCACCGGATGGTCAAAGTCCGCATG endpoint="PBM binding z-score" reading=1.1
biosequence=GCGACTGGGGGAAAGCAGGTTACCATAAGGTTGG endpoint="PBM binding z-score" reading=0.229
biosequence=AGTCAAAGTTCACTAGATAACGTAAGATTCAGCT endpoint="PBM binding z-score" reading=3.35
biosequence=TTACCAGGGTGAAGGTCGTTGATCCCTCTGTAGA endpoint="PBM binding z-score" reading=0.856
biosequence=TCATATAAGTAAACAGGTGAAAGTCCGTAAGTTA endpoint="PBM binding z-score" reading=0.857
biosequence=GCTGCTAGGTCAACTGATCGTCAGCTAAAGCTCG endpoint="PBM binding z-score" reading=-0.532

Please state PBM binding z-score for every sequence in the list that follows.
1. CGTCAAGGTTCAACTAAGGTAACGTAAAGCACGC
2. TAGCCTAGGTCATTGGGCCACTATAGTACGCATC
3. CTCGAAAGGTCGTGCTCAGGTGAGTTTACCAAAC

3.36
1.77
3.54

* * *

- Test system: PPARa:RXRa (NR concentration 270 nM, RXRa partner concentration 90 nM)
- Protocol Notes: PBM binding z-score (relative to random genomic background probes); higher = stronger binding; sequences stand for … in GC…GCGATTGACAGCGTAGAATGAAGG
Endpoint: PBM binding z-score
Give bare numbers.

# count of solved cases: 5
biosequence=ATCGAAAGGACGAAGGTGAGTATACCCACCCGAA endpoint="PBM binding z-score" reading=-0.0423
biosequence=ACAGACAGGTGATGAAGGTAACTCGGGCTATCAT endpoint="PBM binding z-score" reading=0.0611
biosequence=TTACCAACGTGAAAGGTCGTTGATGCACGCCTTG endpoint="PBM binding z-score" reading=2.84
biosequence=GCTATTAGTTGATAGGGCAACCGAATGATTCTCG endpoint="PBM binding z-score" reading=0.29
biosequence=CCGACTGGGGCATAATGTTACCATAAGCCAGCCC endpoint="PBM binding z-score" reading=0.127

Please state PBM binding z-score for every sequence in the list that follows.
1. TCGAGCAGGTTACCAATGGGGCATTCAGCTTTCT
2. TCTTGTAGATCAACTGGAGGTTAAGAAAGATCGA
3. CTGACTGGGGCATAAGGTTACCATAAGCCAGCCC
4. CGTCCAAGGTCAATGCTCGGTCAGTGAAAGCATT
5. CGTCCAAGGTCAAAGGTCAGTGACGAGATGACGG
6. TCCAGCAGGCCAGAGGGTCACTCAAGAGGTACGG

1. 0.887
2. 1.53
3. 2.69
4. 5
5. 7.03
6. 2.23

Please state PBM binding z-score for every sequence in the list that follows.
1. CTCGAAAGGTCGGTTGAGGTGAGTAGACGGATAA
2. CCTGCTGGGCCAAGGTCATTGATCAGTCAAAGCA
3. CGACAAAGTTCAACTAAGGTAACGTAAAGCACGC
4. TCTAGCAGCCCAGAGGGTCACTCAAGAGGTACGG
5. CGAACTAGGTCAGAACAAGACAGTGAAGGATGAT
6. CGTCCAAGGTCCGAGAGGTCAGTGAATGCCGAGT
7. ATATCAAGGTGATCGTGAGGTCGTTGATACTAAC
8. TCAAGTAGGTTACCAATGGGGCATTCAGCTTTCT

[2.76, 3.64, 4.93, 1.92, 3.32, 2.26, 1.82, 2.16]

Please state PBM binding z-score for every sequence in the list that follows.
1. TCTATTAGTTGATTATGGCAACCGAAACAGCGGA
2. CCGACAGGGGCAAAGGTTACCATACTCAGTACGA
3. TCATATAGGTAAAAGGTGAAAATCGGTGTGGTAA
4. ATATGTAGGTTACATCCGGGACATTCAGGCTATG
5. ATACCAAGGTGATCGAGAGGTCGTTGATACTAAC
6. CGAACTAGGTCAGAACAGGACAATGAAGGATGAT

0.209
4.74
5.34
3.44
1.72
3.06

Can you share its PBM binding z-score? I mean this sequence: "CAAACTAGGTCAAGGTCACAGTCGGTTTGTGCCA" 6.25

* * *

Give PBM binding z-score for every item shown.
- Test system: RARa:RXR (NR concentration 270 nM, RXRa partner concentration 90 nM)
- Protocol Notes: PBM binding z-score (relative to random genomic background probes); higher = stronger binding; sequences stand for … in GC…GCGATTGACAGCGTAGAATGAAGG

biosequence=GCGGCTGGGGCAAAGCAGGTTACCATAAGGTTGG endpoint="PBM binding z-score" reading=0.776
biosequence=CGAACTAGGTCATCCAGGACAGTCAATACATTGA endpoint="PBM binding z-score" reading=2.83
biosequence=CGTCAAAGTTCGAGGTAACGTAACAGAAAGCAGC endpoint="PBM binding z-score" reading=1.39

Please state PBM binding z-score for every sequence in the list that follows.
1. CGGACTAGGTCAAGGACAGTGAATCTCCGCACGC
2. GTACCTAGGTGAATAGGTCGTTGATGAGTAGGCG

1. 1.7
2. 1.03

Please state PBM binding z-score for every sequence in the list that follows.
1. CCATACGGGTCACGAGGTTATAGCACGACGAGCG
2. CCGAGTAGGTTATAGGGCATTCAGGCAACGGTGA

1. 5.93
2. 0.863

Please state PBM binding z-score for every sequence in the list that follows.
1. CGTCCAAGGTCATAGGAGGTCAGTTAAGACAGAT
2. TCGAGTAGGTTAGTCGGGGCATACAGCCAACATA
3. GCTACTAGGTCAGGTTGGTCAGCTAACGGGTACG
4. GCATATAGGTAATACAAGGTGAAAGGCCGATTGT
5. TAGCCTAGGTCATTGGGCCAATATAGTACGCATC
6. GCATATTGGTAATACAAGGTGAAAGTCCGATTGT
7. CCTCGGAGGACAGAAGGTAAGAGCTGTCCGCTTT
8. GCTAGCAGGCGATTTGGGTCACTCAATGACGGGC

5.73
0.379
0.74
1.66
2.69
0.645
-0.713
0.575

Please state PBM binding z-score for every sequence in the list that follows.
1. TCTCGGAGGACACGAACGGTCAGAGCTCGACATC
2. TCATATAGGTAAACAGGTGAAAGTGCGTAAGTTA
3. CAAACTAGGTCAAGAGGTCAAAGTCCGCTTCCCG

-0.0917
1.27
7.83

Please state PBM binding z-score for every sequence in the list that follows.
1. TCATATAGGTAAACAGGTGAATGTCCGTAAGTTA
2. TAGCCTAGGTCTTTCAGGGGCCAGTATAGAAAGC
3. CCGACTGGGGCAGAAAGGTTACCATACCATCCGG
4. CGTCCAAGGTCAGGGAGGTCAGTGAATGCCGAGT
5. GGTTACGGGTCAAAGGTTATAGCATGAATAGAAT
6. TTACCAAGGAGAGCTGAGGTCGTTGATCCAACTC
7. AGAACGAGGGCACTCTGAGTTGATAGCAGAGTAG

1.09
-0.214
1.49
5.53
8.27
0.846
0.301

Can you share its PBM binding z-score? I mean this sequence: "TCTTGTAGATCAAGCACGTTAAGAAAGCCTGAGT" 0.501
